- Tested on: HeLa MKYP cells
- protocol: Cell death measured by DAPI staining, with 1 μM FCCP/oligomycin or no toxin (no FO)
- Type: cell-based
- stated_conditions: with 1 μM FO
molecules and their reported Max % death with 1 μM FO
readout_kind: Max % death with 1 μM FO (%)

[[record]]
molecule = "COC[C@@H]1CCN(C2COc3ccccc3C2Nc2ncnc3[nH]c(C4CC4)cc23)C1 (single isomer, unassigned) [EP-0041515]"
measured_target = "HeLa MKYP cells"
output_unit = "%"
result_value = 5.6

[[record]]
molecule = "FC(F)(F)c1cc2c(NC3c4ccccc4OCC3N3C[C@@H]4COC[C@H]4C3)ncnc2[nH]1 (some centres unmarked)"
measured_target = "HeLa MKYP cells"
output_unit = "%"
result_value = 11.1

[[record]]
molecule = "Fc1ccc2c(c1)CC[C@@H](N1CCOCC1)[C@@H]2Nc1ncnc2[nH]c(C(F)(F)F)cc12 (single isomer, unassigned)"
measured_target = "HeLa MKYP cells"
output_unit = "%"
result_value = 4.6

[[record]]
molecule = "N#CC1CN([C@H]2COc3ccccc3[C@@H]2Nc2ncnc3[nH]c(C(F)(F)F)cc23)C1"
measured_target = "HeLa MKYP cells"
output_unit = "%"
result_value = 11.7

[[record]]
molecule = "O=C1COCCN1[C@H]1CCc2ccccc2[C@@H]1Nc1ncnc2[nH]c(C(F)(F)F)cc12 (single isomer, unassigned)"
measured_target = "HeLa MKYP cells"
output_unit = "%"
result_value = 15.4

[[record]]
molecule = "C[C@H]1CN([C@H]2CCc3ccccc3[C@@H]2Nc2ncnc3[nH]c(C4CC4)cc23)CCO1 (single isomer, unassigned)"
measured_target = "HeLa MKYP cells"
output_unit = "%"
result_value = 13.1

[[record]]
molecule = "FC(F)(F)c1cc2c(N[C@H]3c4ccccc4CC[C@@H]3C3CCOCC3)ncnc2[nH]1 (single isomer, unassigned)"
measured_target = "HeLa MKYP cells"
output_unit = "%"
result_value = 17.1

[[record]]
molecule = "Fc1ccc2c(c1)CC[C@H](N1CCOCC1)[C@H]2Nc1ncnc2[nH]c(C3CC3)cc12 (single isomer, unassigned) [EP-0039746]"
measured_target = "HeLa MKYP cells"
output_unit = "%"
result_value = 13.4

[[record]]
molecule = "C[C@H]1CN([C@H]2COc3cc(F)ccc3[C@@H]2Nc2ncnc3[nH]c(C4CC4)cc23)CCO1"
measured_target = "HeLa MKYP cells"
output_unit = "%"
result_value = 12.7

[[record]]
molecule = "C[C@@H]1CN([C@H]2CCc3ccccc3[C@@H]2Nc2ncnc3[nH]c(C4CC4)cc23)CCO1 (single isomer, unassigned)"
measured_target = "HeLa MKYP cells"
output_unit = "%"
result_value = 15.6

[[record]]
molecule = "C[C@@H]1CN([C@H]2COc3ccccc3[C@@H]2Nc2ncnc3[nH]c(C(F)(F)F)cc23)C[C@H](C)O1 [EP-0040942]"
measured_target = "HeLa MKYP cells"
output_unit = "%"
result_value = 4.7

[[record]]
molecule = "CC(=O)N1CCN(C2COc3ccccc3C2Nc2ncnc3[nH]c(C4CC4)cc23)CC1 (racemic)"
measured_target = "HeLa MKYP cells"
output_unit = "%"
result_value = 15.3

[[record]]
molecule = "C[C@H]1CN([C@H]2CCc3ccccc3[C@@H]2Nc2ncnc3[nH]c(C(F)(F)F)cc23)CCO1 (single isomer, unassigned)"
measured_target = "HeLa MKYP cells"
output_unit = "%"
result_value = 7.4

[[record]]
molecule = "C[C@@H]1CN([C@@H]2COc3ccccc3[C@H]2Nc2ncnc3[nH]c(C4CC4)cc23)C[C@H](C)O1"
measured_target = "HeLa MKYP cells"
output_unit = "%"
result_value = 18.4

[[record]]
molecule = "C[C@H]1COCCN1[C@@H]1CCc2ccccc2[C@H]1Nc1ncnc2[nH]c(C(F)(F)F)cc12 (single isomer, unassigned) [EP-0040182]"
measured_target = "HeLa MKYP cells"
output_unit = "%"
result_value = 26.8

[[record]]
molecule = "FC(F)(F)c1cc2c(N[C@H]3c4ccccc4OC[C@H]3C3CCOCC3)ncnc2[nH]1"
measured_target = "HeLa MKYP cells"
output_unit = "%"
result_value = 16.9

[[record]]
molecule = "Fc1ccc2c(c1)OC[C@H](N1C[C@H]3COC[C@H]3C1)[C@H]2Nc1ncnc2[nH]c(C(F)(F)F)cc12 (single isomer, unassigned)"
measured_target = "HeLa MKYP cells"
output_unit = "%"
result_value = 3.2

[[record]]
molecule = "FC(F)(F)c1cc2c(NC3c4ccccc4OCC3N3C[C@H]4COC[C@@H]4C3)ncnc2[nH]1 (some centres unmarked)"
measured_target = "HeLa MKYP cells"
output_unit = "%"
result_value = 9.2

[[record]]
molecule = "C[C@@H]1CN([C@H]2COc3ccccc3[C@@H]2Nc2ncnc3[nH]c(C4CC4)cc23)C[C@H](C)O1 (single isomer, unassigned) [EP-0040750]"
measured_target = "HeLa MKYP cells"
output_unit = "%"
result_value = 27.7

[[record]]
molecule = "FC(F)(F)c1cc2c(N[C@@H]3c4ccccc4CC[C@H]3C3CCOCC3)ncnc2[nH]1 (single isomer, unassigned)"
measured_target = "HeLa MKYP cells"
output_unit = "%"
result_value = 8.1

